assay: Inhibition of Yersinia pestis YopH using […] as substrate by spectrophotometry
Entries and their measured IC50 follow.

# smiles_string, inequality_operator, IC50 [µM]
measured = [
    ("O=C(CCCCNC(=O)c1ccc(-c2ccc(O)c(C(=O)O)c2)s1)Nc1nc(-c2ccccc2)cs1", "=", 11.1),
    ("O=C(CCCCNC(=O)c1cc(-c2ccc(O)c(C(=O)O)c2)on1)Nc1nc(-c2ccccc2)cs1", "=", 23),
    ("O=C(CCNC(=O)c1ccc(-c2ccc(O)c(C(=O)O)c2)s1)Nc1nc(-c2ccccc2)cs1", ">", 50),
    ("O=C(CCCCNC(=O)c1cc(-c2ccc(O)c(C(=O)O)c2)on1)Nc1ccc(N2CCOCC2)cc1", "=", 63),
    ("O=C(CCCCNC(=O)c1cc(-c2ccc(O)c(C(=O)O)c2)cs1)Nc1nc2ccccc2s1", "=", 39.5),
    ("O=C(CCCCNC(=O)c1cc(-c2ccc(O)c(C(=O)O)c2)cs1)Nc1nc(-c2ccccc2)cs1", "=", 44.2),
    ("O=C(CCCCNC(=O)c1ccc(-c2ccc(O)c(C(=O)O)c2)s1)NCc1ccccc1", ">", 200),
    ("O=C(CCCCNC(=O)c1ccc(-c2ccc(O)c(C(=O)O)c2)s1)Nc1nc2ccccc2s1", ">", 20),
    ("O=C(CCCCNC(=O)c1ccc(-c2ccc(O)c(C(=O)O)c2)s1)Nc1ccc(N2CCOCC2)cc1", ">", 200),
]

The measurements presented in this section are drawn from ChEMBL document CHEMBL3352713.
